Sourced from the supplement of paper PMC10065799

# Target Desc: MERTK (UniProt Q12866)
# Sequence (Q12866 whole entry, looked up): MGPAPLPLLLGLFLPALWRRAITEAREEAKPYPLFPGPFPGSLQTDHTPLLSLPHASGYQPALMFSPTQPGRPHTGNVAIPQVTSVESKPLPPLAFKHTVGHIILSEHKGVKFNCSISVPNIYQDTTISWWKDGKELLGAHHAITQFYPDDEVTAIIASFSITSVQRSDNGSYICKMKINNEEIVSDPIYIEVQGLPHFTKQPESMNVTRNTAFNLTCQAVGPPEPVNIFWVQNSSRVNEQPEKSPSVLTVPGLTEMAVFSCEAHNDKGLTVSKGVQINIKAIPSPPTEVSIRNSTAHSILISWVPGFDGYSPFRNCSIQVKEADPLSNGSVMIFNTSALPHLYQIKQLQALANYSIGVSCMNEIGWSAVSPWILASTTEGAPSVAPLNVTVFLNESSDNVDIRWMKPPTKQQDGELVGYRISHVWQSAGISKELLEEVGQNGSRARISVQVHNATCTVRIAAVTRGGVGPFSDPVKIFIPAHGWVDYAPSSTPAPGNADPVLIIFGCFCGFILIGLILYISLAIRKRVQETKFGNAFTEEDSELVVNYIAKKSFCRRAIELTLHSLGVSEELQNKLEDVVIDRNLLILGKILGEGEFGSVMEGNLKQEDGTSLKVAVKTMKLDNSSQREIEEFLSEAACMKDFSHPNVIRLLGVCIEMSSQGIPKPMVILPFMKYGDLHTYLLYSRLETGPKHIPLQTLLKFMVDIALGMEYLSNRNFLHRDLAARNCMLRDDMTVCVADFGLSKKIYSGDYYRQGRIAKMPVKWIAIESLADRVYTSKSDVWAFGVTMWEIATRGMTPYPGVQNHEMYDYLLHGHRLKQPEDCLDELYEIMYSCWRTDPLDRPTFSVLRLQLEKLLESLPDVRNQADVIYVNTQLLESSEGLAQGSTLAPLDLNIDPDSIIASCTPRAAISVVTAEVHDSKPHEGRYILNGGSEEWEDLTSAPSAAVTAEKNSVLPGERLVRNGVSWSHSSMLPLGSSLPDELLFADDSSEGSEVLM
# Assay Overview: phosphorylation enrichment, bacterial display (enrichment ratio); higher = better substrate or ligand; peptides without Tyr show the background
Quick reference for phosphorylation enrichment among some sequences
Answer with a bare number; do not write a unit.

Check out these entries, answers already filled in.
>>> df
                      sequence_code  reported_value
0         PKFHSYVSLPF [PLXNA2_Y293]            1.22
1          DEGVNYFMSKG [FBXO8_Y156]            0.39
2         TRHDEYLEVTK [MAP1A_Y2217]           0.343
3     LFMGDYVGRGY [PPP2CA_Y86_D88G]           0.847
4     PLDGEYFTRQI [TP53_Y327_L330R]            0.54
5      WRRLIYRCQVG [NR2E3_Y81_R76W]           0.484
6  LLQEWYMIISR [HUWE1_Y4066_R4063Q]             1.1
7      IHTDAYVRAMT [RPE65_Y89_R85H]           0.319

Challenge: Write phosphorylation enrichment of FKRAVYCIIGR [NUP93_Y391_YF] ; system used: MERTK (UniProt Q12866)
Response given: 1.13

Challenge: Specify the recorded phosphorylation enrichment for INSLKYAYNIS [EIF2B5_Y583] , system: MERTK (UniProt Q12866).
Response given: 0.398

====

# System: AncSZ
# Assay Overview: phosphorylation enrichment, bacterial display (enrichment ratio); higher = better substrate or ligand; peptides without Tyr show the background
Quantity Kind: phosphorylation enrichment
# output: bare number, no unit

                sequence_code  reported_value
0  IGRHAYGDQFR [IDH1_Y135_YF]           0.449

Challenge: Using the record for YTGDIYSNSNL [LZTR1_Y141] , state its measured phosphorylation enrichment.
Response given: 0.954

Challenge: // fetch phosphorylation enrichment given entry EGELRYMHSRV [ABCD1_Y281_K276E]
Response given: 0.688

Challenge: Give reported phosphorylation enrichment value for TTKGSYSLYVR [HCK_Y180_S183Y]
Response given: 1.02

====

# Target Desc: SHP2-C SH2;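 further: peptide library displayed on the E. coli surface as eCPX fusions, selected cells deep-sequenced, score is each peptide's frequency after selection divided by its frequency in the input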
# Assay Overview: SH2 binding enrichment of the phosphorylated peptide, bacterial display (enrichment ratio); higher = better substrate or ligand; peptides without Tyr show the background
Quantity Kind: SH2 binding enrichment

Consider the following illustrative entries.
>>> df
                    sequence_code  target_desc  reported_value
0  LEQDEYALHSH [HADHB_Y244_R247H]   SHP2-C SH2           0.561
1   SECCKYKTDNP [OSMR_Y689_I691T]   SHP2-C SH2           0.901
2  GIYKDYYRYNF [PLA2G2D_Y85_S80G]   SHP2-C SH2            1.31
3     PEVSGYCHYAD [TG_Y234_C237Y]   SHP2-C SH2           0.676
4       LHSEAYLKYIE [PBRM1_Y1610]   SHP2-C SH2           0.445
5   LREKVYVSLEA [RXRA_Y397_A398V]   SHP2-C SH2            0.94
6           PKEQKYSFLQN [GH1_Y68]   SHP2-C SH2            1.06
7  EPGSLYGCGGG [ATM_Y2019_D2016G]   SHP2-C SH2           0.695

Challenge: Give SH2 binding enrichment for AEVDTYCRHNF [HLA-DRB1_Y107_A103E_YF]
Response given: 0.696

Challenge: Answer with the recorded SH2 binding enrichment of KNNDGNIDFAE [MCFD2_Y135_Y135N_YF] only.
Response given: 0.834
